molecular target: Mitogen-activated protein kinase 10 (Mus musculus) (UniProt Q61831); assay: JNK3 AlphaScreen Assay (AID 530); conditions: JNK3 lysate, c-Jun phosphorylation; series mostly up to 57.1 µM;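 note: kinase came from lysate of stimulated human HepG2 cells; signal reports phosphorylation of biotinylated GST-cJun 1-79 at Ser73 with 10 µM ATP; % is set by controls: 0 for no effect and ±100 for the full control effect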
Inconclusive results are not listed. The source made the active and inactive calls. Calls come from the whole dose curve; as a rule, active = well fitted curve in either direction with a large enough effect (not every such curve was filed as active); inconclusive = small, poorly fitted or top-dose-only effect, or another doubt; inactive = flat fitted curve, though single readings scatter.
PARAMETER_MEASURED: activity change, negative = inhibition

CCC(Cl)[N+](=O)[O-] (stereo not drawn) : inactive
CC(C)[C@@]1(NC(=O)[C@@H]2C=C3c4cccc5[nH]cc(c45)C[C@@H]3N(C)C2)O[C@]2(O)[C@H]3CCCN3C(=O)[C@H](Cc3ccccc3)N2C1=O : inactive
CCCCCCCCCCCCCl : inactive

----------
I'd be grateful if you could share measured caspase-3 activation for these entries.
assay: Cellular Toxicity (caspase-3) Hek293 (AID 664); settings: HEK293 caspase-3 activation, DMSO = 0%, 100 µM tamoxifen = 100%; at 92.2 µM (top of the series);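 note: cells exposed to compound for 16 h at 37 °C before readout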
Results filed as inconclusive are left out.
Number in %, nothing else.

Q: Could you share which caspase-3 activation value was measured for Cl/C=C/Cl ?
Ans: -0.612

Q: Could you share which caspase-3 activation value was measured for Clc1cccc(Cl)c1Cl ?
Ans: -0.313

Q: Could you share which caspase-3 activation value was measured for CCC(Cl)[N+](=O)[O-] (stereo not drawn) ?
Ans: -0.0531

Q: Could you share which caspase-3 activation value was measured for Oc1cc(Cl)c(Cl)c(Cl)c1 ?
Ans: 11.5

Q: Could you share which caspase-3 activation value was measured for CN(C)N=O ?
Ans: 5.49

Q: Could you share which caspase-3 activation value was measured for ClP(Cl)(Cl)(Cl)Cl ?
Ans: -1.32

Q: Could you share which caspase-3 activation value was measured for CC(=O)[O-].CC(=O)[O-].CC(=O)[O-].[Cr+3] ?
Ans: 1.42

Q: Could you share which caspase-3 activation value was measured for CN(C)C(=O)Cl ?
Ans: -0.876

Q: Could you share which caspase-3 activation value was measured for CC(C)(Cl)[N+](=O)[O-] ?
Ans: -0.194

Q: Could you share which caspase-3 activation value was measured for Brc1ccc(Oc2ccc(Br)cc2Br)c(Br)c1 ?
Ans: 19.3

Q: Could you share which caspase-3 activation value was measured for CC(=O)NNc1ccccc1 ?
Ans: -1.37

Q: Could you share which caspase-3 activation value was measured for O=C(O)c1cccc(Cl)c1 ?
Ans: -0.358

Q: Could you share which caspase-3 activation value was measured for ClCCCCl ?
Ans: -1.63

Q: Could you share which caspase-3 activation value was measured for ClCCOCOCCCl ?
Ans: -1.31

Q: Could you share which caspase-3 activation value was measured for C=CC#N ?
Ans: -0.49

Q: Could you share which caspase-3 activation value was measured for CCCCOC(=O)c1ccccc1N ?
Ans: 0.422

Q: Could you share which caspase-3 activation value was measured for C=COC(C)=O ?
Ans: 1.36

Q: Could you share which caspase-3 activation value was measured for Clc1ccc(C(Cl)(Cl)Cl)cc1Cl ?
Ans: 1.11

Q: Could you share which caspase-3 activation value was measured for C=CCO ?
Ans: 0.437

Q: Could you share which caspase-3 activation value was measured for CN=C=O ?
Ans: 1.04

Q: Could you share which caspase-3 activation value was measured for N#CCBr ?
Ans: 1.09

Q: Could you share which caspase-3 activation value was measured for CC(Cl)CCl (stereo not drawn) ?
Ans: -1.21

Q: Could you share which caspase-3 activation value was measured for C=CCc1cc(OC)c2c(c1)OCO2 ?
Ans: 1.27

Q: Could you share which caspase-3 activation value was measured for COP(=S)(OC)SCn1nnc2ccccc2c1=O ?
Ans: 0.18

Q: Could you share which caspase-3 activation value was measured for Clc1cccc2ccccc12 ?
Ans: -0.708

Q: Could you share which caspase-3 activation value was measured for Cc1cc(Cl)ccc1O ?
Ans: 0.112

Q: Could you share which caspase-3 activation value was measured for OCCCCO ?
Ans: -2.02

Q: Could you share which caspase-3 activation value was measured for CCOC(=O)C1OC1(C)c1ccccc1 (stereo not drawn) ?
Ans: 1.59

----------
Experiment: Cell Viability - LYMP2-006 (AID 978);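 note: cells exposed to compound for 24 hours; % is set by controls: 0 for no effect and ±100 for the full control effect; nearly all actives have a fitted effect of over 60% in size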
Conditions: LYMP2-006 lymphoblastoid cell viability, qHTS; series mostly up to 92.2 µM
Excerpt: NIH Chemical Genomics Center [NCGC] NIH Molecular Libraries Screening Centers Network [MLSCN] National Institutes of Environmental Health Sciences [NIEHS] National Toxicology Program [NTP] We have developed a 1536-well cell-based assay for quantitative high throughput screening (qHTS) against a number of cell lines to determine in vitro cytotoxicity of small molecules. […] 8. Detection; Luminescence; Viewlux plate reader […]
Inconclusive results are not listed. Active and inactive are the calls of the source. The call rests on the fitted dose curve; in most records, active means well fitted cell-killing curve with a large enough effect; inconclusive means small, poorly fitted or top-dose-only effect; inactive means flat fitted curve, though single readings scatter.
PARAMETER_MEASURED: outcome

Would you please look over these solved cases?
CCCCC(=O)Cl : inactive
C=CCc1cc(OC)c2c(c1)OCO2 : inactive
OCCOCCO : inactive
Cc1ccc(N=C=O)cc1N=C=O : inactive
CC(C)OC(=O)Cc1ccccc1 : inactive
ClC(Cl)C(Cl)Cl : inactive
COc1cc(-c2ccc(N)c(OC)c2)ccc1N : inactive
C=CC(=O)OC : inactive
c1ccc(Nc2ccc(Nc3ccccc3)cc2)cc1 : inactive
O=Cc1ccc2c(c1)OCO2 : inactive

Q: Could you share which outcome value was measured for Oc1cc(Cl)ccc1Cl ?
Ans: inactive

Q: Could you share which outcome value was measured for Cc1cccc(N)c1C ?
Ans: inactive

Q: Could you share which outcome value was measured for Clc1cccc2ccccc12 ?
Ans: inactive

----------
test: Cell Viability - LYMP2-022 (AID 987); settings: LYMP2-022 lymphoblastoid cell viability; series mostly up to 92.2 µM;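 note: cells exposed to compound for 24 hr; nearly all actives have a fitted effect of over 55% in size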
Inconclusive results are not listed. The source made the active and inactive calls. Calls follow the shape of the dose curve; as a rule, active = well fitted cell-killing curve with a large enough effect; inconclusive = small, poorly fitted or top-dose-only effect; inactive = flat fitted curve, though single readings scatter.
In this exercise, the only acceptable responses are active, inactive

Q: Tell me the assay call for CC(=O)[O-].CC(=O)[O-].CC(=O)[O-].[Cr+3] please.
Ans: inactive

Q: Tell me the assay call for COc1c(C(C)(C)C)cc([N+](=O)[O-])c(C)c1[N+](=O)[O-] please.
Ans: inactive

Q: Tell me the assay call for ClC=CCl please.
Ans: inactive

Q: Tell me the assay call for N#C/C=C/C#N please.
Ans: active

Q: Tell me the assay call for Nc1ccc(Cc2ccc(N)c(Cl)c2)cc1Cl please.
Ans: inactive

Q: Tell me the assay call for O=[N+]([O-])c1ccc(Cl)c(Cl)c1Cl please.
Ans: inactive

Q: Tell me the assay call for CN(C)N=O please.
Ans: inactive

Q: Tell me the assay call for O=C(O)c1cccc(Cl)c1 please.
Ans: inactive

Q: Tell me the assay call for CCOS(C)(=O)=O please.
Ans: inactive

Q: Tell me the assay call for CCCN(CCC)c1c([N+](=O)[O-])cc(C(F)(F)F)cc1[N+](=O)[O-] please.
Ans: inactive

Q: Tell me the assay call for ClC(Br)Br please.
Ans: inactive

Q: Tell me the assay call for ClC(Cl)c1ccccc1 please.
Ans: inactive

Q: Tell me the assay call for Oc1cc(Cl)ccc1Cl please.
Ans: inactive

Q: Tell me the assay call for CCCCCc1cc(O)cc(O)c1 please.
Ans: inactive

----------
target: Estrogen receptor (Homo sapiens); test: qHTS assay for small molecule antagonists of estrogen receptor alpha signaling (AID 588513); conditions: ER-alpha-UAS-bla HEK293, beta-lactamase ratio, antagonist mode; series mostly up to 76.9 µM
Calls of active or inactive are those of the source. The call rests on the fitted dose curve; in most records, active means well fitted curve in the direction sought with a large enough effect in the signal ratio, with a control signal flat (not every such curve was filed as active); inconclusive means small, poorly fitted or top-dose-only effect, or effect the other way, or a change in a side signal; inactive means no such curve, though single readings can be large or run the other way; the % refers to the signal ratio.
In this exercise, the only acceptable responses are Y = active, N = inactive

Q: Tell me the assay call for COP(=S)(OC)SCn1nnc2ccccc2c1=O please.
Ans: Y

Q: Tell me the assay call for CCCC[N+](=O)[O-] please.
Ans: N

Q: Tell me the assay call for CC(=O)CCC(C)=O please.
Ans: N

Q: Tell me the assay call for Oc1ccc(Cl)c(Cl)c1 please.
Ans: N

Q: Tell me the assay call for OC[P+](CO)(CO)CO please.
Ans: N

Q: Tell me the assay call for CC(C#N)CCC#N (centres undefined) please.
Ans: N

Q: Tell me the assay call for N#CCc1ccccc1 please.
Ans: N

Q: Tell me the assay call for O=[N+]([O-])c1c(Cl)c(Cl)c(Cl)c(Cl)c1Cl please.
Ans: N

Q: Tell me the assay call for O=[N+]([O-])c1cc(Cl)c(Cl)c(Cl)c1 please.
Ans: N

Q: Tell me the assay call for Cc1ccc(N)cc1C please.
Ans: N

Q: Tell me the assay call for Nc1ccc([N+](=O)[O-])cc1[N+](=O)[O-] please.
Ans: N

Q: Tell me the assay call for C=C(C)CCl please.
Ans: N

Q: Tell me the assay call for C(CCOCC1CO1)COCC1CO1 (centres undefined) please.
Ans: N

Q: Tell me the assay call for O=[N+]([O-])c1ccc(Cl)c(Cl)c1Cl please.
Ans: N

Q: Tell me the assay call for CC(C)CC(C)N (centres undefined) please.
Ans: N

Q: Tell me the assay call for CN(C)c1ccc(N)cc1 please.
Ans: Y

Q: Tell me the assay call for CCCCOCC1CO1 (centres undefined) please.
Ans: N

Q: Tell me the assay call for CC(C)CON=O please.
Ans: N

Q: Tell me the assay call for ClC(Cl)C(Cl)Cl please.
Ans: N

Q: Tell me the assay call for CNC(=O)O/N=C/C(C)(C)S(C)=O (centres undefined) please.
Ans: N

Q: Tell me the assay call for C=CC(=O)OCC(C)C please.
Ans: N

Q: Tell me the assay call for ClC(Cl)c1ccccc1 please.
Ans: N

Q: Tell me the assay call for ClCCBr please.
Ans: N

Q: Tell me the assay call for O=[N+]([O-])c1cc(Cl)c(Cl)cc1Cl please.
Ans: N

Q: Tell me the assay call for O=C(O)c1cccc(Cl)c1 please.
Ans: N

Q: Tell me the assay call for C=CCBr please.
Ans: N

Q: Tell me the assay call for CCCCC#N please.
Ans: N

Q: Tell me the assay call for CCCCNC(=O)n1c(NC(=O)OC)nc2ccccc21 please.
Ans: N

Q: Tell me the assay call for CN(C)C(=O)Cl please.
Ans: N
